- Target Desc: SMARCA4-HiBiT HeLa cells (protein which is expressed from the SMARCA4 gene) (Homo sapiens)
- Construct: protein which is expressed from the SMARCA2 and SMARCA4 genes; host or cells: HeLa (SMARCA4-HiBiT engineered line)
- Sequence (P51532 whole entry): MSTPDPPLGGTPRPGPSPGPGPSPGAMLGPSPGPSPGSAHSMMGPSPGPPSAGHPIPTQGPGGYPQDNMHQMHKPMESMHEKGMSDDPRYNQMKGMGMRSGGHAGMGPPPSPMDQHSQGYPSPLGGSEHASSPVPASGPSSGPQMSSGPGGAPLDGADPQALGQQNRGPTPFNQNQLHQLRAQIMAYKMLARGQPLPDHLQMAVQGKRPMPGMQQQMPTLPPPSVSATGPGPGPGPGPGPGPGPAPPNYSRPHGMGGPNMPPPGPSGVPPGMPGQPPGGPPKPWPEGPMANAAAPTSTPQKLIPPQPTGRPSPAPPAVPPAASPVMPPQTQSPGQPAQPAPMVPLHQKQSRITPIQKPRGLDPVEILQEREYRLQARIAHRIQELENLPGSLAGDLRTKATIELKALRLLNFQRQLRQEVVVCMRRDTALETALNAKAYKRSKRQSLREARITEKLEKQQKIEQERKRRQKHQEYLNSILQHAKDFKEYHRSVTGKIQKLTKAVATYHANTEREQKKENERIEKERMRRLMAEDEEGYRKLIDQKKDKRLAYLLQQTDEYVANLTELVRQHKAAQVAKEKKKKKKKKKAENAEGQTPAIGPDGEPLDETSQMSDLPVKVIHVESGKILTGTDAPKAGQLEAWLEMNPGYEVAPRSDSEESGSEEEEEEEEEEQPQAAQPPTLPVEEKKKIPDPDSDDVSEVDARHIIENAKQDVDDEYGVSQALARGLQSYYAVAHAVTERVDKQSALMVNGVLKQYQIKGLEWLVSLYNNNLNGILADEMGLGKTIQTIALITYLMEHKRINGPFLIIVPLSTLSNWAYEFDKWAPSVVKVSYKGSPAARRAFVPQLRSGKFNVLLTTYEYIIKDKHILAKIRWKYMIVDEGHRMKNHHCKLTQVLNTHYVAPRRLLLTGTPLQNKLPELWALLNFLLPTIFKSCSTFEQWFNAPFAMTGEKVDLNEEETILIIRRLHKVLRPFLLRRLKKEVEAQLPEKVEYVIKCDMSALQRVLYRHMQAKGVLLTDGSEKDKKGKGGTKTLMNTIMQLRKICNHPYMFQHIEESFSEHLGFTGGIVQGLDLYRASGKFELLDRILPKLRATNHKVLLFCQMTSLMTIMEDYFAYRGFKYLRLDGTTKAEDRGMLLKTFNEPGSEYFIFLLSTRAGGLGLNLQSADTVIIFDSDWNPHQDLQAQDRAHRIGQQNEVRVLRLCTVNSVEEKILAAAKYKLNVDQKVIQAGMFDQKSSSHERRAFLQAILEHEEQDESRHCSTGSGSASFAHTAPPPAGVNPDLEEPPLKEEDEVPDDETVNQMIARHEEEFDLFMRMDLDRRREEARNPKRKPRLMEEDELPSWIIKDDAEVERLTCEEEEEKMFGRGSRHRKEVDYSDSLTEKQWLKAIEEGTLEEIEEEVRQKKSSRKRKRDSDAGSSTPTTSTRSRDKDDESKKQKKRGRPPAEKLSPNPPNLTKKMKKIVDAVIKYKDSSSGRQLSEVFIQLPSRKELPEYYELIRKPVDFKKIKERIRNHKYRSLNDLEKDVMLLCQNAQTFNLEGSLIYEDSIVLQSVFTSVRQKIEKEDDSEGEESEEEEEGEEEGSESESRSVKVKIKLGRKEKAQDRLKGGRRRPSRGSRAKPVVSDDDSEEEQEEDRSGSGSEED
- Method: SMARCA4 degradation assay (HiBiT-fusion HeLa cell line, 24 h, luminescence)
- Format: cell-based
- Recorded Conditions: @ 1 μM
Measured inhibition at 1 µM values are reported for all entries that follow.

Below are worked cases with known answers.
> print(dat)
                                   compound                               target.desc   recorded.endpoint  measured.result
1  C[C@@H]1CCN(c2cc(-c3ccccc3O)nnc2N)CCN1c1ccnc(C#CCN2C3CCCC2CC3)n1 [Compound P-228]  SMARCA4-HiBiT HeLa cells (protein which is expressed from the SMARCA4 gene) (Homo sapiens)  inhibition at 1 µM        30 to 70%
2  CC1CCN(c2cc(-c3ccccc3O)nnc2N)CCN1c1ccnc(C#CCNC(=O)c2cc3ncccn3n2)n1 (stereo not drawn) [Compound P-46]  SMARCA4-HiBiT HeLa cells (protein which is expressed from the SMARCA4 gene) (Homo sapiens)  inhibition at 1 µM            > 70%
3  C[C@H]1CN(c2ccnc(C#CCN3CCCCC3)n2)CCN1c1cc(-c2ccccc2O)nnc1N [Compound P-319]  SMARCA4-HiBiT HeLa cells (protein which is expressed from the SMARCA4 gene) (Homo sapiens)  inhibition at 1 µM            < 30%
4  CC1CC(C)N1CC#Cc1nccc(N2CCN(c3cc(-c4ccccc4O)nnc3N)CC[C@H]2C)n1 (stereo partly drawn) [Compound P-249]  SMARCA4-HiBiT HeLa cells (protein which is expressed from the SMARCA4 gene) (Homo sapiens)  inhibition at 1 µM            < 30%
5  Nc1nnc(-c2ccccc2O)cc1N1CCCN(c2ccnc(C#CCNc3ncco3)n2)CC1 [Compound P-15]  SMARCA4-HiBiT HeLa cells (protein which is expressed from the SMARCA4 gene) (Homo sapiens)  inhibition at 1 µM            < 30%

Request - read-out inhibition at 1 µM | tested on SMARCA4-HiBiT HeLa cells (protein which is expressed from the SMARCA4 gene) (Homo sapiens) | compound Nc1nnc(-c2ccccc2O)cc1N1CCCN(c2ccnc(C#CCNC(=O)c3cc4ncccn4n3)n2)CC1 [Compound P-76]
> 70%

Param readout= inhibition at 1 µM; system= SMARCA4-HiBiT HeLa cells (protein which is expressed from the SMARCA4 gene) (Homo sapiens); entry= Nc1nnc(-c2ccccc2O)cc1OC1CC2CN(c3ccnc(C#CCN4CCOCC4)n3)CC2C1 (stereo not drawn) [Compound P-220] ; returns value.
30 to 70%

What inhibition at 1 µM appears in the records for this compound with SMARCA4-HiBiT HeLa cells (protein which is expressed from the SMARCA4 gene) (Homo sapiens)? CN1CCC(C#Cc2nccc(N3CCCN(c4cc(-c5ccccc5O)nnc4N)CC3)n2)CC1 [Compound P-256]
30 to 70%

Which inhibition at 1 µM is reported with SMARCA4-HiBiT HeLa cells (protein which is expressed from the SMARCA4 gene) (Homo sapiens) for this entry: Nc1nnc(-c2ccccc2O)cc1N1CCCN(c2ccnc(C#CCOc3ncco3)n2)CC1 [Compound P-128] ?
30 to 70%

SMARCA4-HiBiT HeLa cells (protein which is expressed from the SMARCA4 gene) (Homo sapiens) / inhibition at 1 µM / Nc1nnc(-c2ccccc2O)cc1N1CCN(c2ccnc(C#CCNC(=O)c3cccnn3)n2)CC1 [Compound P-5] : value?
< 30%

The measurements presented in this section are drawn from patent US20260265238A1.
